Assay notes: in vivo
Run conditions: CD1 nude, mouse, 0.5 nmol/mouse, total radioactivity, Stomach uptake

| Molecule | tissue uptake at 4 h [%ID/g] |
| --- | --- |
| Cc1ccc(CCCC(=O)NCCOCCOCCOCCOCCC(=O)NCCCC[C@H](NC(=O)CC[C@H](C(=O)O)N2CCN(CC(=O)O)CCN(CC(=O)O)CCN(CC(=O)O)CC2)C(=O)N[C@@H](CC(=O)O)C(=O)N[C@@H](CC2CCCCC2)C(=O)N[C@@H](Cc2ccccc2)C(=O)N[C@H](CO)C(=O)N[C@H](CCCNC(=N)N)C(=O)N[C@@H](Cc2ccc(O)cc2)C(=O)N[C@@H](CC(C)C)C(=O)N[C@@H](Cc2c[nH]c3ccccc23)C(=O)N[C@@H](CO)C(N)=O)cc1 [[^177Lu]Lu-uPAR-17, metal not drawn] | 0.73 |
| Cc1ccc(CCCC(=O)NCCOCCOCCOCCC(=O)NCCCC[C@H](NC(=O)CN2CCN(CC(=O)O)CCN(CC(=O)O)CCN(CC(=O)O)CC2)C(=O)N[C@@H](CC(=O)O)C(=O)N[C@@H](CC2CCCCC2)C(=O)N[C@@H](Cc2ccccc2)C(=O)N[C@H](CO)C(=O)N[C@H](CCCNC(=N)N)C(=O)N[C@@H](Cc2ccc(O)cc2)C(=O)N[C@@H](CC(C)C)C(=O)N[C@@H](Cc2c[nH]c3ccccc23)C(=O)N[C@@H](CO)C(N)=O)cc1 [[^177Lu]Lu-uPAR-15, metal not drawn] | 0.67 |
| Cc1ccc(CCCC(=O)NCCOCCOCCOCCOCCOCCC(=O)NCCCC[C@H](NC(=O)CN2CCN(CC(=O)O)CCN(CC(=O)O)CCN(CC(=O)O)CC2)C(=O)N[C@@H](CC(=O)O)C(=O)N[C@@H](CC2CCCCC2)C(=O)N[C@@H](Cc2ccccc2)C(=O)N[C@H](CO)C(=O)N[C@H](CCCNC(=N)N)C(=O)N[C@@H](Cc2ccc(O)cc2)C(=O)N[C@@H](CC(C)C)C(=O)N[C@@H](Cc2c[nH]c3ccccc23)C(=O)N[C@@H](CO)C(N)=O)cc1 [[^177Lu]Lu-uPAR-18, metal not drawn] | 0.54 |
| Cc1ccc(CCCC(=O)NCCOCCOCCOCCOCCC(=O)NC[C@H](NC(=O)CN2CCN(CC(=O)O)CCN(CC(=O)O)CCN(CC(=O)O)CC2)C(=O)N[C@@H](CC(=O)O)C(=O)N[C@@H](CC2CCCCC2)C(=O)N[C@@H](Cc2ccccc2)C(=O)N[C@H](CO)C(=O)N[C@H](CCCNC(=N)N)C(=O)N[C@@H](Cc2ccc(O)cc2)C(=O)N[C@@H](CC(C)C)C(=O)N[C@@H](Cc2c[nH]c3ccccc23)C(=O)N[C@@H](CO)C(N)=O)cc1 [[^177Lu]Lu-uPAR-14, metal not drawn] | 0.69 |
| Cc1ccc(CCCC(=O)NCCCCCCCC(=O)NCCCC[C@H](NC(=O)CN2CCN(CC(=O)O)CCN(CC(=O)O)CCN(CC(=O)O)CC2)C(=O)N[C@@H](CC(=O)O)C(=O)N[C@@H](CC2CCCCC2)C(=O)N[C@@H](Cc2ccccc2)C(=O)N[C@H](CO)C(=O)N[C@H](CCCNC(=N)N)C(=O)N[C@@H](Cc2ccc(O)cc2)C(=O)N[C@@H](CC(C)C)C(=O)N[C@@H](Cc2c[nH]c3ccccc23)C(=O)N[C@@H](CO)C(N)=O)cc1 [[^177Lu]Lu-uPAR-12, metal not drawn] | 1.4 |
| Cc1ccc(CCCC(=O)NCCOCCOCCOCCOCCC(=O)NCCCC[C@H](NC(=O)CN2CCN(CC(=O)O)CCN(CC(=O)O)CCN(CC(=O)O)CC2)C(=O)N[C@@H](CC(=O)O)C(=O)N[C@@H](CC2CCCCC2)C(=O)N[C@@H](Cc2ccccc2)C(=O)N[C@H](CO)C(=O)N[C@H](CCCNC(=N)N)C(=O)N[C@@H](Cc2ccc(O)cc2)C(=O)N[C@@H](CC(C)C)C(=O)N[C@@H](Cc2c[nH]c3ccccc23)C(=O)N[C@@H](CO)C(N)=O)cc1 [[^177Lu]Lu-uPAR-11, metal not drawn] | 0.75 |

meta.source: paper PMC12920294
